B1: Twister Ribozyme (parent)
chain: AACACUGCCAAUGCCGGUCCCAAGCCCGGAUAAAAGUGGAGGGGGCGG

# Variants of: B1
# Method: self-cleavage, relative activity (ratio to wild type); higher = more cleavage; co-transcriptional
Response field class: string, computed from recorded self-cleavage by ranges low bracket = under 0.1, middle bracket = from 0.1 up to 0.8, high bracket = 0.8 and over

Study these solved cases before continuing.
* A30C A33U | middle bracket
* U18G A22G | low bracket
* G17A C46A | middle bracket
* C21U A32U | middle bracket

Attention now shifts to the item below.
[in] # bin lookup: classify A32G G44C by its self-cleavage
[out] high bracket

Reference source for all entries: the RNAGym collection of RNA variant scans (doi:10.7554/elife.80360)
